Assay Target: Cytochrome P450 2C9 (Homo sapiens, UniProt P11712)
Sequence (P11712 whole entry): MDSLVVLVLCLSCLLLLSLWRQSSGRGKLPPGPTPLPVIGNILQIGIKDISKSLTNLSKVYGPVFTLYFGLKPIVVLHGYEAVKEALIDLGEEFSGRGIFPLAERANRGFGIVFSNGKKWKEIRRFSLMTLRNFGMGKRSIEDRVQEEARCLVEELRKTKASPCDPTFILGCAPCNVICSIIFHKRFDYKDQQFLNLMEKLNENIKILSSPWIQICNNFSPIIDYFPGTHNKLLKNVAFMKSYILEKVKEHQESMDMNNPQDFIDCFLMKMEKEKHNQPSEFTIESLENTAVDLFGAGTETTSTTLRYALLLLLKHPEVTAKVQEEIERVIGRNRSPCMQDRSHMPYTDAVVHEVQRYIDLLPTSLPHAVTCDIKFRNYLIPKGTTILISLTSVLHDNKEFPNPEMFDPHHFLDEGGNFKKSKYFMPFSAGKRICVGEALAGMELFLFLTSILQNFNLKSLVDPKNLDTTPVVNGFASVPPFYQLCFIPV
Measurement Type: pIC50
Reminder that pIC50 is minus the log10 of a molar concentration.

Consider the reported pIC50 for these molecules:
- Molecule: "O=C(CCc1csc(-c2ccc(O)cc2Cl)n1)Nc1ccccc1C(=O)O"
  pIC50: 5.92
- Molecule: "Cc1c(CCC(=O)Nc2ccccc2C(=O)O)cnn1-c1ccc(O)cc1"
  pIC50: 4.66

Moving on to another molecule below.
Prompt: Indicate its recorded pIC50; the molecule in question is CC(CC(=O)NC1=C(C(=O)O)CCCC1)c1csc(-c2ccc(O)cc2Cl)n1 (centres undefined)
Completion: 5.29

All figures here come from ChEMBL document CHEMBL1150380.
